Value source: ChEMBL document CHEMBL5058577

- System: HEK-293T
- method description: Multiplex assay against HEK293T
- Assay type: toxicity, cell-based
- conditions used: human, 48 h, 10 µM, compound concentration 10 uM, replicate 1
readout name: Population Hoechst High Intensity Objects (%)
Enter your answer as a number in %; do not include the unit.

compound	obs value
Cc1ccc(F)cc1C(=O)Nc1ccc(C(=O)N2Cc3cccn3Cc3ccccc32)c(Cl)c1 [LIXIVAPTAN]	7

For the next question, use this compound.
Give measured Population Hoechst High Intensity Objects (%) for `COc1ccccc1N1CCN(CCCCNC(=O)c2ccc3ccccc3c2)CC1.Cl` (HEK-293T).
8

* * *

Entries and their Population Mitotic Cells (%) values follow.
- Test system: U2OS
- method description: Multiplex assay against U2OS
- Format: toxicity, cell-based
- conditions used: human, 48 h, 1 µM, compound concentration 1 uM, replicate 2
Use % as the unit, but write only the number.

compound	readout units	Population Mitotic Cells (%)
CC1(COc2ccc3c(c2)ncn3-c2ccc3cccc(N4CCC(N)CC4)c3n2)COC1	%	37
C[C@H]1[C@H]2CC[C@H]3[C@@H]4CC=C5C[C@@H](N(C)C)CC[C@]5(C)[C@H]4CC[C@]23CN1C	%	13
C[C@H](NC(=O)c1c(C(F)F)nn(C)c1Oc1cccc(C(F)(F)F)c1)c1ccc(C(=O)O)cc1	%	7
COc1cc(NC(=O)CCN2CCC(OC(=O)Nc3ccccc3-c3ccccc3)CC2)c(Cl)cc1CNC[C@H](O)c1ccc(O)c2[nH]c(=O)ccc12	%	14
Cc1ccc(F)cc1C(=O)Nc1ccc(C(=O)N2Cc3cccn3Cc3ccccc32)c(Cl)c1	%	5
CC[C@H]1OC(=O)[C@H](C)[C@@H](O[C@H]2C[C@@](C)(OC)[C@@H](O)[C@H](C)O2)[C@H](C)[C@@H](O[C@@H]2O[C@H](C)C[C@H](N(C)C)[C@H]2O)[C@@]2(C)CC(C)=C(O2)[C@H](C)[C@@H](O)[C@]1(C)O	%	21
O=C(O)Cc1ccccc1Nc1c(Cl)cccc1Cl	%	16
COc1cc(C(=O)N(CCCc2ccccc2)Cc2ccc(CC(=O)O)cc2)cc(OC)c1C	%	21

Tell us which Population Mitotic Cells (%) value is on record for `C[C@@H]1C[C@H]2[C@@H]3CCC4=CC(=O)C=C[C@]4(C)[C@@]3(F)[C@@H](O)C[C@]2(C)[C@@]1(O)C(=O)CO`
28

Fill in Population Mitotic Cells (%) for record `c1cc(OCCCN2CCCCC2)ccc1CN1CCCCC1`
23

Give a short answer stating reported Population Mitotic Cells (%) for `CN(C)c1ccnc2sc3c(=O)n(N4CCCCCC4)cnc3c12` .
7

Provide one value: measured Population Mitotic Cells (%) of `COc1c(C)cc(NC(=O)c2nn(Cc3ccc(F)cc3)c3c2CN(C(=O)c2ccc[nH]2)C[C@]3(C)C(N)=O)cc1C`
15
